Tested on: myeloid leukemia patient primary cells Pat.6
ASSAY: area under dose-response curve (viability, 1 nM-10 uM) (fraction (0-1)); higher = more sensitive
STATED CONDITIONS: 72 h
Classify by measured area under dose-response curve: 1 if it is equal to or exceeds 0.08, -1 if it is smaller.

Query :: Test whether the molecule O=C(/C=C/c1ccc(O)c(O)c1)OCCc1ccccc1 [Caffeic acid phenethyl ester] records area under dose-response curve of 0.08 or higher.
Result :: 1

Query :: What do you get for "Cc1c2c(=O)n(-c3ccccc3Cl)[nH]c2cc(=O)n1Cc1ccccn1" ?
Result :: -1

Query :: Same lookup for C=CCN(C)CCCCCCOc1ccc(C(=O)c2ccc(Br)cc2)c(F)c1.O=C(O)/C=C/C(=O)O [Ro 48-8071 fumarate] , please.
Result :: -1

Query :: Now try CCN(CC)C(=S)SSC(=S)N(CC)CC [Disulfiram] .
Result :: 1

Query :: Same question, CS(=O)(=O)N1CCN(Cc2cc3nc(-c4cccc5[nH]ncc45)nc(N4CCOCC4)c3s2)CC1 [Pictilisib] this time
Result :: -1

Query :: Record: Cc1cc2c(C(C)C)c(O)c(O)c(C=O)c2c(O)c1-c1c(C)cc2c(C(C)C)c(O)c(O)c(C=O)c2c1O [Gossypol]
Result :: 1

Query :: Cc1[nH]nc(C(F)(F)F)c1Cc1sc2c(c1C(=O)N1C[C@](C)(O)CO1)c(=O)n(C)c(=O)n2C(C)C [AZD3965] , same question.
Result :: -1

Query :: // same read-out, input: CC(=O)Nc1nc(C)c(-c2ccc(Cl)c(S(=O)(=O)NCCO)c2)s1 [PIK93]
Result :: -1
